target-desc: MCH-1R (Homo sapiens, UniProt Q99705)
Sequence (Q99705 whole entry): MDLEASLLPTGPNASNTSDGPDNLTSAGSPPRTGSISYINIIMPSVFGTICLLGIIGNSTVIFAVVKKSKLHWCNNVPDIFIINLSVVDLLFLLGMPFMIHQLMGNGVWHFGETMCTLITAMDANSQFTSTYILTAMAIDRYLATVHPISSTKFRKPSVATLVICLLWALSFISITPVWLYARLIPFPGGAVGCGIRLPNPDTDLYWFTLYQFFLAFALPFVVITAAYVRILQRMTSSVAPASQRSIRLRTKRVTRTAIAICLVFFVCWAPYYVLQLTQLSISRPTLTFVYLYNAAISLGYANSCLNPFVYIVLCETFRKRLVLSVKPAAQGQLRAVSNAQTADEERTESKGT
assay-remarks: Aequorin bioluminescence functional assay, 293AEQ17/MCH-1R cells
Assay type: cell-based
Parameters: expressed in transfected cells
experimental-parameters: human MCH = 100; activation at 10 μM concentration
Residues, ends and D or L forms follow the SMILES beside them.
measurement-kind: MCH-1R Activation % (%)
Just the number in %, nothing appended.

Example compounds with recorded MCH-1R Activation %:
| compound | units-of-measure | MCH-1R Activation % |
| --- | --- | --- |
| CSCC[C@@H]1NC(=O)[C@@H](NC(=O)[C@@H](CCCNC(=N)N)NC(C)=O)CSSC[C@@H](C(N)=O)NC(=O)[C@@H]2CCCN2C(=O)[C@H](CCCNC(=N)N)NC(=O)[C@H](Cc2ccc(O)cc2)NC(=O)[C@H](C(C)C)NC(=O)[C@H](CCCNC(=N)N)NC(=O)[C@H](CC(N)=O)NC(=O)[C@H](CC(C)C)NC1=O [SEQ. ID. NO. 29] (HELM PEPTIDE1{[ac].[dR].C.M.L.N.R.V.Y.R.P.C.[am]}$PEPTIDE1,PEPTIDE1,3:R3-12:R3$$$V2.0) | % | 120 |
| CSCC[C@@H]1NC(=O)[C@@H](NC(=O)[C@@H](Cc2ccccc2)NC(C)=O)CSSC[C@@H](C(N)=O)NC(=O)[C@@H]2CCCN2C(=O)[C@H](CCCNC(=N)N)NC(=O)[C@H](Cc2ccc(O)cc2)NC(=O)[C@H](C(C)C)NC(=O)[C@H](CCCNC(=N)N)NC(=O)CNC(=O)[C@H](CC(C)C)NC1=O [SEQ. ID. NO. 9] | % | 117 |

Could you now look at the following compound, please?
Record request: MCH-1R Activation % value, item CSCC[C@@H]1NC(=O)[C@@H](NC(=O)[C@H](CCCNC(=N)N)NC(C)=O)CSSC[C@@H](C(N)=O)NC(=O)[C@@H]2CCCN2C(=O)[C@H](CCCNC(=N)N)NC(=O)[C@H](Cc2ccc(O)cc2)NC(=O)[C@H](C(C)C)NC(=O)[C@H](CCCNC(=N)N)NC(=O)[C@@H]2CCCN2C(=O)[C@H](CC(C)C)NC1=O [SEQ. ID. NO. 22] 10
